Molecular target: T1, human CCR8 (human, UniProt P51685 1-355)
T1 construct: whole, on cells; also called hCCR8
T1 sequence (P51685 whole entry): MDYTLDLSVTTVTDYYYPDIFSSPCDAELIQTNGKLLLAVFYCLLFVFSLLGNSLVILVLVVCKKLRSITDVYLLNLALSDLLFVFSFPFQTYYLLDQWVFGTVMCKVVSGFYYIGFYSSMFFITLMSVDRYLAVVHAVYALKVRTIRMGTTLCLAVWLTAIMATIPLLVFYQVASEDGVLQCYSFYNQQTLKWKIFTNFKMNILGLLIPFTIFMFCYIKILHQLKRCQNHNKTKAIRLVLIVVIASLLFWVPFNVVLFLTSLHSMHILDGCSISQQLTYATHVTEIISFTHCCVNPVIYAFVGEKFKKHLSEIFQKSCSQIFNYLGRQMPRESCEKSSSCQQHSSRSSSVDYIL
Experiment: FACS, competition with CCL1 on CHO-K1-human CCR8 cells
assay-readout: Max Inhibition (%)

[[record]]
binder = "Hu149-21 (antibody, human IgG1, V domains shown, human IgG1) VH: EVQLVESGGGLVQPGGSLKLSCAASGFTFNTYAMNWVRQASGKGLEWVGRIRSKSNFYATAYAASVKGRFTISRDDSKNTAYLQMNSLKTEDTAVYYCTRGREYGRSYAMDYWGQGTLVTVSS VL: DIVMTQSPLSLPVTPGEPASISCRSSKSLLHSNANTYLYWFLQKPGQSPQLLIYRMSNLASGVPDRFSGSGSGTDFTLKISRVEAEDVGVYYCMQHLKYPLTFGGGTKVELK"
recorded_value = 101

[[record]]
binder = "Hu149-13 (antibody, human IgG1, V domains shown, human IgG1) VH: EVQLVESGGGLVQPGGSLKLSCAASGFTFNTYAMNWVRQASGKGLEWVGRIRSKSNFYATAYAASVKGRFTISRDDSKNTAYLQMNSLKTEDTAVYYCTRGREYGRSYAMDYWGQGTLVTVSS VL: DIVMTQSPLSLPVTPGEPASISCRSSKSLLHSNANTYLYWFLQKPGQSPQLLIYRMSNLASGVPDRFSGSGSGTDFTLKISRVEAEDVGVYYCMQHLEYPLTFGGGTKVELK"
recorded_value = 102

[[record]]
binder = "Hu149-15 (antibody, human IgG1, V domains shown, human IgG1) VH: EVQLVESGGGLVQPGGSLKLSCAASGFTFNTYAMNWVRQAPGKGLEWVGRIRSKSNFYATAYAASVKGRFTISRDDSKNTAYLQMNSLKTEDTAVYYCTRGRDYGSSYAMDYWGQGTLVTVSS VL: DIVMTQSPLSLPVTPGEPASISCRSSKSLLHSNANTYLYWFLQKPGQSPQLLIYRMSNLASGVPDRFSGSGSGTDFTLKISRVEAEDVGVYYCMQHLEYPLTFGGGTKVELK"
recorded_value = 99.3

[[record]]
binder = "Hu149-16 (antibody, human IgG1, V domains shown, human IgG1) VH: EVQLVESGGGLVQPGGSLKLSCAASGFTFNTYAMNWVRQASGKGLEWVGRIRSKSNFYATAYAASVKGRFTISRDDSKNTAYLQMNSLKTEDTAVYYCTRGRDYGSSYAMDYWGQGTLVTVSS VL: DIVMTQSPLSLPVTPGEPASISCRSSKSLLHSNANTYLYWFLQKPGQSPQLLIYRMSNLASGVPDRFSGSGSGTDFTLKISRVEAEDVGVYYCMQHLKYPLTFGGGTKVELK"
recorded_value = 101

